- TESTED_TARGET: human insulin receptor (HIR) (human, UniProt P06213 28-1382, limits assumed)
- PROTOCOL_DESCRIPTION: 125I-insulin competition, solubilised HIR
Non-standard residues stand in square brackets, D forms with d. No end group written: not given here.
Please use 1 for Kd under 0.04 nM and -1 for everything else, ties included.

Answered cases to consult:
* SLEEEWAQVECEVYGRGCSGSLDESFYDWFERQLG [S549] | 1
* ADQEWAWVQCEVYGRGCPSESFYDWFERQLG [S494] | -1
* SLEEEWAQIQHELWPVEKGESFYDWFERQL [S605] | -1
* SLEEEWAQIQHELYGPAESESFYD[dW]FERQL [S596] | -1
* LEEEWAQIQREVWHS[dP]ASESF[dY]D[dW]FERQL [S595] | -1

Continue with the binder presented below.
Request: hey, is Kd for LDQEWAWVQCEVYGRGCPSESFYDWFERQLG [S471] lower than 0.04 nM or not?
Result: -1
